System: SW1353
Test: relative viability vs DMSO control (72 h) (fraction); higher = more viable cells
Settings: 1.111 µM
Please assign 0 whenever relative viability is at or above 1, and 1 whenever it is below.

QUERY: Given Cc1ccc(NC(=O)c2ccc(CN3CCN(C)CC3)cc2)cc1Nc1nccc(-c2cccnc2)n1 , is recorded relative viability strictly lower than 1?
RESULT: 0

QUERY: And then CN(C)C[C@@H]1CCn2cc(c3ccccc32)C2=C(C(=O)NC2=O)c2cn(c3ccccc23)CCO1 , what is it?
RESULT: 1

QUERY: Same thing, different molecule: C[C@@H]1COC(Nc2ccc3ncnc(Nc4ccc(OCc5nccs5)c(Cl)c4)c3c2)=N1
RESULT: 1

QUERY: Also Cc1cn(-c2cc(NC(=O)c3ccc(C)c(Nc4nccc(-c5cccnc5)n4)c3)cc(C(F)(F)F)c2)cn1 , if possible.
RESULT: 0
